In this section, each of the compounds is paired with its reported melting point.

The examples below pair each entry with its known result.
COMPOUND: Cc1cc(C)c(/C=C2\C(=O)N(COC(=O)CCC(=O)O)c3ccccc32)[nH]1
VALUE REPORTED: 160 to 162 °C
--
COMPOUND: Cc1cc(C)c(/C=C2\C(=O)N(C(=O)CNC(=O)OCc3ccccc3)c3ccccc32)[nH]1
VALUE REPORTED: 193 to 196 °C
--
COMPOUND: CC(=O)OC(C)N1C(=O)/C(=C\c2[nH]c(C)cc2C)c2ccccc21 (stereo not shown)
VALUE REPORTED: 107 to 110 °C

In the following, a different compound is considered.
I have this compound here, Cc1cc(C)c(/C=C2\C(=O)N(CO)c3ccccc32)[nH]1 , and I need its recorded melting point. 200 to 202 °C
